Please go through the items and note down their Binding Signal (fold over 6E7 parental antibody).
# TARGET_UNDER_TEST: T1, human TREM2 (triggering receptor expressed on myeloid cells 2) (human) (UniProt Q9NZC2)
# T1 sequence (looked up): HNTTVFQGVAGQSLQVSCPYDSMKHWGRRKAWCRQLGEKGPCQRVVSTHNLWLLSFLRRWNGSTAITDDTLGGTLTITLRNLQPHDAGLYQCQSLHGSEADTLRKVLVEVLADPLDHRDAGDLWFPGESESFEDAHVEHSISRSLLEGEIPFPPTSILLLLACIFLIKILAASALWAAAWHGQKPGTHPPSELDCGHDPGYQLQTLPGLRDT
# ASSAY_METHOD_TEXT: 2nd screen, 2 nM Ab
One number for each entry, in fold.

6E7 antibody affinity modulation variant V15 (antibody, V domains shown) VH: EVQLVQSGAEVKKPGESLKISCKGSGYSFASYWIAWVRQMPGKGLEWMGTIYPGDSDTRYSPSFQGQVTISADKSISTAYLQWSSLKASDTAMYFCARSRTFYYDSSDYFDYWGQGTLVTVSS VL: DIQMTQSPSSVSASVGDRVTITCRASQGISSWLAWYQQKPGKAPKLLIYAASWLQNGVPSRFSGSGSGTDFTLTISSLQPEDFATYFCQQADSYPRTFGQGTKLEIK :: 4.72

Looking up 6E7 antibody affinity modulation variant V14 (antibody, V domains shown) VH: EVQLVQSGAEVKKPGESLKISCKGSGYSFGSYWIAWVRQMPGKGLEWMGIIYPGDQDTRYSPSFQGQVTISADKSISTAYLQWSSLKASDTAMYFCARGRTFYYDSSDYFDYWGQGTLVTVSS VL: DIQMTQSPSSVSASVGDRVTITCRASQGISSWLAWYQQKPGKAPKLLIYAASRLQNGVPSRFSGSGSGTDFTLTISSLQPEDFATYFCQQADSFPRTFGQGTKLEIK , I see its Binding Signal (fold over 6E7 parental antibody) listed as 2.57
